system: MEF A1-2A-BIM cells, caspase 3/7 luminescence, 3 h; assay: inducers of caspase signal in A1-dependent MEFs – cell-based, luminescence, retest, A1 inhibitor project, dose response (AID 2765)
The source made the active and inactive calls.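 The calls were made as follows: active = half-maximal concentration for the rise in caspase light signal at or below ten times the top tested dose; inconclusive = flat fit between 30% and 70% activity, or unreliable curve fit; inactive = the rest.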
Items are presented alongside their recorded EC50.

COMPOUND	EC50
C=C1C(O)[C@@H]2O[C@]3(CC[C@H](/C=C/C(C)[C@@H]4CC(C)=CC5(O[C@H](C[C@@](C)(O)CO)CCC5O)O4)O3)CC[C@H]2O[C@@H]1C(O)CC(C)[C@H]1OC2(CCCCO2)CCC1C (stereo partly specified)	> 35 µM (inactive)
CCN(CC)C(=O)CCCc1c[nH]c2ccccc12	> 35 µM (inactive)
Cc1ccc(C)c(NC(=O)CN(C)C(=O)c2ccc(-c3cccc(C(F)(F)F)c3)o2)c1	> 35 µM (inactive)
COc1ccccc1NC(=O)CC1COc2ccccc2O1 (stereo unspecified)	> 35 µM (inactive)
O=C1c2ccsc2SCCN1Cc1cccc(F)c1	> 35 µM (inactive)

// fetch EC50; item: CC1CCCCC12NC(=O)N(CC(=O)c1ccc(Cl)s1)C2=O (stereo unspecified) ; system: MEF A1-2A-BIM cells, caspase 3/7 luminescence, 3 h
> 35 µM (inactive)
